Assay: inhibition of 3D7 malaria parasite growth – strain 3D7 (AID 2306);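 further: 0% = DMSO wells and 100% = chloroquine plus artemisinin control wells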
Conditions: P. falciparum 3D7 erythrocytic growth, LDH absorbance, 72 h; at 2 µM; active compounds read high
Please provide measured growth inhibition for the entries that follow.
Provide the reading as a plain figure in %.

Exercise: Given the entry "COc1ccc2nc(C)cc(Nc3ccc(Oc4ccc(Cl)c5ccccc45)c(Cl)c3)c2c1" , report its measured growth inhibition.
Key: 100

Exercise: Given the entry "CCN(CCNc1nc(NCCc2cnc[nH]2)nc(N(CCC#N)Cc2ccccc2)n1)c1cccc(C)c1" , report its measured growth inhibition.
Key: 101

Exercise: Given the entry "CC(=O)Oc1cc(C(=O)Nc2ccc(Cl)cc2)cc2ccccc12" , report its measured growth inhibition.
Key: 88

###

Assay: inhibition of 3D7 malaria parasite growth – strain 3D7 (AID 2306);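 further: 0% = DMSO wells and 100% = chloroquine plus artemisinin control wells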
Settings: P. falciparum 3D7 erythrocytic growth, LDH absorbance, 72 h; at 2 µM; active compounds read high
Please provide measured growth inhibition for the entries that follow.
Provide the reading as a plain figure in %.

Exercise: Given the entry "c1ccc2c(Nc3ccc(Cc4ccc(Nc5c6ccccc6nc6ccccc56)cc4)cc3)c3ccccc3nc2c1" , report its measured growth inhibition.
Key: 101

Exercise: Given the entry "CCN(CCN(C)C)Cc1ccc(-c2ccc(NS(=O)(=O)c3cccc4cccnc34)cc2)cc1" , report its measured growth inhibition.
Key: 91

Exercise: Given the entry "COc1ccc2nccc([C@@H](O)CN3CCC(NCc4cc5ccccc5[nH]4)CC3)c2c1" , report its measured growth inhibition.
Key: 92

###

Molecular target: L-lactate dehydrogenase (Plasmodium falciparum (isolate CDC / Honduras)) (UniProt Q27743)
Sequence (Q27743 whole entry, looked up): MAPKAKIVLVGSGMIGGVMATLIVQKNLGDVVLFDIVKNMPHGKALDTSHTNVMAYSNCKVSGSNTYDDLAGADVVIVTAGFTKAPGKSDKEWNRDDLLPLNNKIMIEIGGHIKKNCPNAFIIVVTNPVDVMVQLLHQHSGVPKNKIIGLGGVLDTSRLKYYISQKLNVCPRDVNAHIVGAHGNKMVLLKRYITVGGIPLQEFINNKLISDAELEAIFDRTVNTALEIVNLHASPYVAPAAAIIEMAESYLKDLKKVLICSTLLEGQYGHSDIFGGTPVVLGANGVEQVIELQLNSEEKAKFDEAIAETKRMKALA
Test: PfLDH activity inhibition – cell lysate, 3D7 strain, counter-screen for P. falciparum growth inhibition project (AID 2304);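 further: 0% = vehicle and 100% = reference inhibitor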
Conditions: P. falciparum 3D7 crude extract, LDH APAD/NBT absorbance; at 2 µM; active compounds read high
Quantity name: inhibition (%)
Provide the reading as a plain figure in %.

Exercise: Given the entry "O=S(=O)(NCCN1CCCC1)c1cccc(-c2cccc(CNCc3ccc(F)cc3)c2)c1" , report its measured inhibition.
Key: 4

Exercise: Given the entry "O=C(NCc1cccc(C(F)(F)F)c1)[C@@H]1CCCN1C(=O)c1ccc(O)c(-c2ccc(Cl)c(Cl)c2)c1" , report its measured inhibition.
Key: 2

Exercise: Given the entry "Brc1ccc(Nc2ccnc3cc(-c4nccs4)ccc23)cc1Oc1ccnc2cc(-c3nccs3)ccc12" , report its measured inhibition.
Key: -4

Exercise: Given the entry "Cc1cc2c(NC(=O)NC3CCN(CCc4ccccc4Cl)CC3)cccc2cn1" , report its measured inhibition.
Key: 0

###

Please provide measured growth inhibition for the entries that follow.
Experiment: antimalarial activity against Dd2 strain (AID 2302);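 further: 0% = DMSO untreated growth and 100% = chloroquine plus artemisinin killed control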
Conditions: P. falciparum Dd2 in RBCs, LDH growth readout, 72 h; at 2 µM; active compounds read high
Provide the reading as a plain figure in %.

Exercise: Given the entry "O=C(Nc1ccc(N2CCN(Cc3cccc(F)c3)CC2)cc1)c1cccs1" , report its measured growth inhibition.
Key: 92

Exercise: Given the entry CCN(CC)CC(O)c1cc(-c2ccc(C)cc2)nc2c(C)cc(C)cc12 (configuration not stated) , report its measured growth inhibition.
Key: 99

Exercise: Given the entry "CCOc1ccc(OCCCON2C(N)=NC(N)=NC2(C)C)cc1" , report its measured growth inhibition.
Key: 94

Exercise: Given the entry CN(C)C(CNC(=O)c1cc(-c2ccncc2)c(-c2ccc(NC(=O)Nc3cccc(F)c3)cc2)o1)c1ccccc1 (configuration not stated) , report its measured growth inhibition.
Key: 99

Exercise: Given the entry CCCN(CCC)C(C)CCC(C)Nc1c2ccc(Cl)cc2nc2ccc(OC)cc12 (configuration not stated) , report its measured growth inhibition.
Key: 99

Exercise: Given the entry CC(C)CCCC(C)NC[C@@H](O)[C@H](Cc1ccccc1)NC(=O)c1cc(N2CCCC2=O)cc(N(c2ccccc2)S(C)(=O)=O)c1 (some centres not stated) , report its measured growth inhibition.
Key: 97

Exercise: Given the entry "O=C(Nc1ccccc1)N(Cc1cccc(-c2ccc(CNCc3ccc4c(c3)OCO4)cc2)c1)C1CCN(Cc2ccccc2)CC1" , report its measured growth inhibition.
Key: 82

Exercise: Given the entry "CCn1ncc2c(N3CCCC3=O)cc(C(=O)N[C@@H](Cc3ccccc3)[C@H](O)CNC(C)(C)c3cccc(C(F)(F)F)c3)cc21" , report its measured growth inhibition.
Key: 99

Exercise: Given the entry "Nc1c2nc(-c3c(F)cccc3Cl)[nH]c(=O)c2nc(=O)n1-c1ccccc1" , report its measured growth inhibition.
Key: 0

Exercise: Given the entry "O=C(Nc1ccc(-c2cccc(-c3nc4ccc(C(F)(F)F)cc4[nH]3)c2)cc1)c1csnn1" , report its measured growth inhibition.
Key: 25

Exercise: Given the entry "CN(Cc1ccccc1)C1CCN(c2cc(NC(=O)c3cccc(F)c3)ccn2)CC1" , report its measured growth inhibition.
Key: 3

Exercise: Given the entry "O=C(Nc1cccc(-c2ccc(-c3nc4ccc(C(F)(F)F)cc4[nH]3)cc2)c1)c1ccoc1" , report its measured growth inhibition.
Key: 42
